Cited source for all entries: patent US9695154B2

Molecular target: recombinant human SAE enzyme (Homo sapiens)
Sequence (Q9UBT2 1-640): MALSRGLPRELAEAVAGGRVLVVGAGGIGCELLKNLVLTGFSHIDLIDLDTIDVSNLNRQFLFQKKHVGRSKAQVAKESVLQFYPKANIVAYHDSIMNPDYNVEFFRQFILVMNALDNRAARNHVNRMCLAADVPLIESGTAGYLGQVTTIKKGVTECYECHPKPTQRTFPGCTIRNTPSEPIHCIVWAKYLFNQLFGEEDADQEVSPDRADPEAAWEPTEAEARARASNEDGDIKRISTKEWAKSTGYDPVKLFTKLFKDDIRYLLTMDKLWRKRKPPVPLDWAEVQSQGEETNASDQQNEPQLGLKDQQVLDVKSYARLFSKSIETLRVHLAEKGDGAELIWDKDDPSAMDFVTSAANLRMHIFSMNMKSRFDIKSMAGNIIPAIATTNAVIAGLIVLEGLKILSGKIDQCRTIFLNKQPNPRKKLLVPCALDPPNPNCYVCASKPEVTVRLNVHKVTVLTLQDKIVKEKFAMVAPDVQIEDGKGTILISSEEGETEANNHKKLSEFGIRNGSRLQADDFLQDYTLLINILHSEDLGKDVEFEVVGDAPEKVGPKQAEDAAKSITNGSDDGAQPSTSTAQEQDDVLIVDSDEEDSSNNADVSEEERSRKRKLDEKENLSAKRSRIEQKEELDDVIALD
Sequence (Q9UBE0 1-346 partner): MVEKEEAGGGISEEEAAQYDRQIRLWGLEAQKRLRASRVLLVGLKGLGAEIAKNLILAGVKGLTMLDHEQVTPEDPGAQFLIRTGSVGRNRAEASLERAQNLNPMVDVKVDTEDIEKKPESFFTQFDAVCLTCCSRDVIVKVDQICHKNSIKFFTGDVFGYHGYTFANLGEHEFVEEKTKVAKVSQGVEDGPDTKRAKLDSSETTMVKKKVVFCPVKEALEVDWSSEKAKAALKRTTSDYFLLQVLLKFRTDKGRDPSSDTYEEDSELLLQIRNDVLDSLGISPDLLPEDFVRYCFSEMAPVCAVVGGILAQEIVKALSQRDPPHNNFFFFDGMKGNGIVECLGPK
Experiment: SAE HTRF Enzyme Assay
Format: biochemical
Details: compound concentration 0.111 μM; read-out: Percent Inhibition

- structure.smiles.string: "NS(=O)(=O)OC[C@H]1C[C@@H](Nc2ncncc2C(=O)c2ccn(Cc3ccc(C(F)(F)F)cc3)n2)C[C@@H]1O"
  uom: "%"
  inhibition at 0.111 µM: 95
- structure.smiles.string: "Cn1cccc(Cn2ccc(C(=O)c3cncnc3N[C@@H]3C[C@H](COS(N)(=O)=O)[C@@H](O)[C@@H]3F)c2)c1=O"
  uom: "%"
  inhibition at 0.111 µM: 97
- structure.smiles.string: "Cc1cccc(Cn2ccc(C(=O)c3cncnc3N[C@@H]3C[C@H](COS(N)(=O)=O)[C@@H](O)C3)n2)c1F"
  uom: "%"
  inhibition at 0.111 µM: 100
